// provenance: the supplement of paper PMC10567573

# METHOD_NOTES: protein stability index of a GFP-peptide fusion (GPS, HEK-293T) (PSI 1-6); higher = more stable;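 also: 24-mer peptide tiles fused after GFP, lentivirally expressed, FACS-sorted into six equal bins by GFP/DsRed ratio, decoded by Illumina sequencing, PSI is the read-weighted mean bin number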
# STUDY_CONDITIONS: treatment: MLN4924 1 uM, 8 h; c terminus: a fixed tail appended
QUANTITY_NAME: protein stability index

(Q) Need protein stability index, item KELEARVRKPAEAERYKLERLAEA [FLOT1]
(A) 4.95

(Q) Can you handle GLGGGSSRTSCRLSGGLGAGSCRL [KRT17] next?
(A) 2.35

(Q) Can you handle MTKAQESLTLEDVAVDFTWEEWQF [ZNF649] next?
(A) 3.74

(Q) Can you handle PAPEAESKQTEKDPGVQELEALID [EFHC1] next?
(A) 5.57

(Q) Can you handle QVERMREVNSRCYQPEPFACGIEH [FBXO34] next?
(A) 2.43

----------
# METHOD_NOTES: protein stability index of a GFP-peptide fusion (GPS, HEK-293T) (PSI 1-6); higher = more stable
# STUDY_CONDITIONS: treatment: MLN4924 1 uM, 8 h; c terminus: a fixed tail appended
The entries below come with measured protein stability index values attached.
Answer field: number only, no words.

Sample records with protein stability index:
CHAIN_SEQUENCE	protein stability index
QFCAQRFGRKDHLTRHTKKTHSQE [PLAGL1]	4.18
EPESKNAPHSQGEYDVYSTFQSHE [PPP2R2C]	5.19
KEQRKQMKGRGQLEKPPAPNQAMV [TBC1D10A]	5.01

(Q) Need protein stability index, item HYVAQTGILWLLMNNCFLNLSPRK [GAGE1]
(A) 3.58

(Q) Can you handle NCIGIRDFALHYCLHHVHYLATEY [GAN] next?
(A) 3.32

(Q) Can you handle SDLEDMEEEEGTRSPTLEPPRGRS [SMG5] next?
(A) 5.39

(Q) Can you handle TSVNLGILTADLYSLFVGLFLFGY [SLC35F2] next?
(A) 3.12

----------
# METHOD_NOTES: protein stability index of a GFP-peptide fusion (GPS, HEK-293T) (PSI 1-6); higher = more stable
# STUDY_CONDITIONS: treatment: MLN4924 1 uM, 8 h; c terminus: a fixed tail appended
The entries below come with measured protein stability index values attached.
Answer field: number only, no words.

CHAIN_SEQUENCE	protein stability index
LGGVKKSATLRSFEGLMGTIKSKV [TPD52L3]	2.54
HQGIKPYKCSWCGKSFSQNTNLHT [ZNF75A]	2.52
MQEFFGLKVTGKPDAETLKVMKQP [MMP1]	3.53

(Q) Need protein stability index, item AVIGNFLYVVGGQSNYDTKGKTAV [KLHL13]
(A) 2.24

(Q) Can you handle IPYNAKFLGSTEVEQPKGTEVVRD [GULP1] next?
(A) 4.69

(Q) Can you handle VRRLQALRLEREEYVLLKALALAN [ESRRA] next?
(A) 2.12

(Q) Can you handle CVLADRLDCADALLKAGADVNKTD [INVS] next?
(A) 4.17

(Q) Can you handle TVSTSEVTSQQEPQIPVDRGSETT [TAF7L] next?
(A) 5.44

----------
# METHOD_NOTES: protein stability index of a GFP-peptide fusion (GPS, HEK-293T) (PSI 1-6); higher = more stable
# STUDY_CONDITIONS: treatment: MLN4924 1 uM, 8 h; c terminus: a fixed tail appended
The entries below come with measured protein stability index values attached.
Answer field: number only, no words.

CHAIN_SEQUENCE	EXPERIMENTAL_RESULT
LLVVGGFGSQQSPIDVVEKYDPKT [KLHL12]	3.61
MTDQQAEARSYLSEEMIAEFKAAF [TNNC2]	4.25
EVEGVKNIMTQNVERILARGENLE [VAMP8]	4.46
GAPLIRVHSSPVSSPSVSGPRRLV [SPACA3]	3.6
MSGDGATEQAAEYVPEKVKKAEKK [CSTF3]	5.65
CLVCGDVASGYHYGVASCEACKAF [ESRRA]	3.94

(Q) Need protein stability index, item KLPLPSTLRSHLKSFSMAKGLNAR [RAB40A]
(A) 2.68

(Q) Can you handle TKVGGTNPNGGSFEEVLSSTAHAS [TPD52L1] next?
(A) 4.69

(Q) Can you handle MEALKLQPGLSFLNLGSGTGYLST [PCMTD1] next?
(A) 2.31

(Q) Can you handle YSLVLELSDSGAFRRSLHDPDGLV [APMAP] next?
(A) 2.14
